Overview of reported IC50 across a group of compounds:
# tgt: Syk catalytic domain (aa 356-635 with a C-terminal His-tag) (Homo sapiens, UniProt P43405)
# Construct: His-tag (C); made in house
# measurement_description: In vitro Syk kinase activity measured by trFRET, Syk catalytic domain
# Format: biochemical
# condition_context: Syk catalytic domain (aa 356-635), trFRET, 0.001 mM ATP

Worked set:
INSERT INTO assay_data (compound, endpoint_name, result) VALUES
  ('COc1ccc(-c2ncn3c2cnc2[nH]ccc23)cc1 [N.1.98]', 'IC50', '< 100 nM'),
  ('Cc1ccc(-c2cc3c(ncc4cnc(N(C)C)n43)[nH]2)cc1 [M.1.16]', 'IC50', '100 to 1000 nM');

Problem: Enter reported IC50 observed with Syk catalytic domain (aa 356-635 with a C-terminal His-tag) (Homo sapiens, UniProt P43405) for CN1CCN(C(=O)CCO)C[C@@H]1c1nc(-c2ccc(C(C)(C)O)cc2)c2cnc3[nH]ccc3n12 [N.1.95]
Solution: 100 to 1000 nM

Problem: Enter reported IC50 observed with Syk catalytic domain (aa 356-635 with a C-terminal His-tag) (Homo sapiens, UniProt P43405) for COc1ccc(-c2nc([C@H]3CCC[C@@H](NC(C)=O)C3)n3c2cnc2[nH]ccc23)cc1 [J.2.1.7]
Solution: 100 to 1000 nM

Problem: Enter reported IC50 observed with Syk catalytic domain (aa 356-635 with a C-terminal His-tag) (Homo sapiens, UniProt P43405) for CC(=O)N1CCC(O)(c2ccc(-c3nc(C)n4c3cnc3[nH]ccc34)cc2)CC1 [J.2.1.6]
Solution: < 100 nM

Problem: Enter reported IC50 observed with Syk catalytic domain (aa 356-635 with a C-terminal His-tag) (Homo sapiens, UniProt P43405) for COc1ccc2c(c1)c(-c1cc3c(ncc4cnc([C@@H]5CC[C@H](NS(=O)(=O)C6CC6)C5)n43)[nH]1)cn2C [K.1.1]
Solution: < 100 nM

Problem: Enter reported IC50 observed with Syk catalytic domain (aa 356-635 with a C-terminal His-tag) (Homo sapiens, UniProt P43405) for COc1ccc2c(c1)c(-c1nc(C)n3c1cnc1[nH]ccc13)cn2C [N.1.55]
Solution: 100 to 1000 nM

Problem: Enter reported IC50 observed with Syk catalytic domain (aa 356-635 with a C-terminal His-tag) (Homo sapiens, UniProt P43405) for CC(=O)N1CC=C(c2ncn3c2cnc2[nH]ccc23)CC1 [J.2.1.5]
Solution: 1000 to 10000 nM

Problem: Enter reported IC50 observed with Syk catalytic domain (aa 356-635 with a C-terminal His-tag) (Homo sapiens, UniProt P43405) for COc1ccc2c(c1)c(-c1cc3c(ncc4cnn(C)c43)[nH]1)cn2CC(O)CN(C)C (stereo not drawn) [N.1.29]
Solution: < 100 nM

---

# tgt: Syk catalytic domain (aa 356-635 with a C-terminal His-tag) (Homo sapiens)
# Construct: His-tag (C); made in house
# measurement_description: In vitro Syk kinase activity measured by trFRET, Syk catalytic domain
# Assay type: biochemical
# condition_context: Syk catalytic domain (aa 356-635), trFRET, 0.001 mM ATP
endpoint_name: IC50

INSERT INTO results (compound, result) VALUES
  ('CNC(=O)c1cccc(-c2cc3c(ncc4cnn(C)c43)[nH]2)c1 [N.1.4]', '< 100 nM');

Problem: Enter reported IC50 observed with Syk catalytic domain (aa 356-635 with a C-terminal His-tag) (Homo sapiens) for Cc1nc(-c2ccc(C(C)(C)O)cc2)c2cnc3[nH]ccc3n12 [N.1.50]
Solution: < 100 nM

Problem: Enter reported IC50 observed with Syk catalytic domain (aa 356-635 with a C-terminal His-tag) (Homo sapiens) for COc1ccc(-c2nc(CO)n3c2cnc2[nH]ccc23)cc1 [N.1.113]
Solution: 100 to 1000 nM

FYI, the data here is from patent US20140349970A1.
